# measured-on: sGC α1/β1 heterodimer (Homo sapiens (Human), UniProt Q02108+Q02153)
# Sequence (Q02108 whole entry): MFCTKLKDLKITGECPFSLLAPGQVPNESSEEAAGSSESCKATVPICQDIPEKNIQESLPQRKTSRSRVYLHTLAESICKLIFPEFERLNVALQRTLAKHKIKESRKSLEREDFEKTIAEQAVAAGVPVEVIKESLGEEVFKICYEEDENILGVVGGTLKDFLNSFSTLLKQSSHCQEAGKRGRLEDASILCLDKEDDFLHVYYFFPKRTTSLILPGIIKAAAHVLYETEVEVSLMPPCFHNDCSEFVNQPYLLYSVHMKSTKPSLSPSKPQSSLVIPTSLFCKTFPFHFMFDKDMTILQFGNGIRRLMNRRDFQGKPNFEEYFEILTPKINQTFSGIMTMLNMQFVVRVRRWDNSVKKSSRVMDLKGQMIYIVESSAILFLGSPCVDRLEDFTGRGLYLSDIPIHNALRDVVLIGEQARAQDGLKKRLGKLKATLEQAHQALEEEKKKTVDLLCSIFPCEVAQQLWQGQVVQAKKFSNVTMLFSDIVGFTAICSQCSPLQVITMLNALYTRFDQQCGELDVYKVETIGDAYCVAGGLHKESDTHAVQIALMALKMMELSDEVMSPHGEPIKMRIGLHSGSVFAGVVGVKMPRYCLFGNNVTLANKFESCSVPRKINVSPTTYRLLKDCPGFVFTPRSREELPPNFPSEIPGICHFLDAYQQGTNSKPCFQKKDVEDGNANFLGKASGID
# Sequence (Q02153 whole entry): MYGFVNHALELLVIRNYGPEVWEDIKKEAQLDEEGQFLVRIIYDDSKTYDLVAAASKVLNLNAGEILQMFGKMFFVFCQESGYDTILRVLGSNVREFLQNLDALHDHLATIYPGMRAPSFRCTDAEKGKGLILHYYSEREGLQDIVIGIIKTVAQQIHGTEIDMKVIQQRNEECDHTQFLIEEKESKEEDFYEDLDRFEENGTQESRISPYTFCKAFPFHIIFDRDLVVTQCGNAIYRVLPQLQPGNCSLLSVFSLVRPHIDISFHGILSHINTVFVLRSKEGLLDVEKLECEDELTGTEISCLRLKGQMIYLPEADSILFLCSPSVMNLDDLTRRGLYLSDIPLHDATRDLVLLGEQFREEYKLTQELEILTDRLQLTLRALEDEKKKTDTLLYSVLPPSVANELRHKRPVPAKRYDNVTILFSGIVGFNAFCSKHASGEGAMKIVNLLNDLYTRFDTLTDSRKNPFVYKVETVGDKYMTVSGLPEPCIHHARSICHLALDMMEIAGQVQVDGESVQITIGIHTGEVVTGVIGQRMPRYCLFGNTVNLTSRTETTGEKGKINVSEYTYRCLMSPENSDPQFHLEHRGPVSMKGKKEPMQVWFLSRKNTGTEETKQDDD
# protocol-description: Cell-based sGC functional assay (cyclic GMP assay for sGC activator: CASA assay)
# Set-up: concentration or dose not given beside the values
# condition-set: activity expressed as percentage of compound A (standard); CHO-K1/sGC cells
measured-metric: % Activation (%)
Form entry: value (%) — number only.

Recorded % Activation, per entry:
molecule="CC1CCC(Cn2nc(-c3nc(N)c4c(n3)NC(=O)[C@@]4(C)c3ccc(CCC(=O)O)cc3)c3ccc(Cl)cc32)CC1 (single isomer, unassigned) [Example 5BA]" measured_on="sGC α1/β1 heterodimer (Homo sapiens (Human), UniProt Q02108+Q02153)" measured_metric="% Activation" value_reported=76
molecule="CC1CCC(Cn2nc(-c3nc(N)c4c(n3)NC(=O)C4(C)c3nc(CC(C)(C)C(=O)O)co3)c3cccnc32)CC1 (single isomer, unassigned) [Example 126AA]" measured_on="sGC α1/β1 heterodimer (Homo sapiens (Human), UniProt Q02108+Q02153)" measured_metric="% Activation" value_reported=89.0

Documented % Activation of CC1CCC(Cn2nc(-c3nc(N)c4c(n3)NC(=O)C4(C)c3nc(CC(C)(C)C(=O)O)co3)c3ccccc32)CC1 (single isomer, unassigned) [Example 231AB] : 127.9

Documented % Activation of CC1CCC(Cn2nc(-c3nc(N)c4c(n3)NC(=O)[C@@]4(C)c3ccc(CCC(=O)O)cc3)c3ccc(Cl)cc32)CC1 (single isomer, unassigned) [Example 5BB] : 107

Documented % Activation of CC1CCC(Cn2nc(-c3nc(N)c4c(n3)NC(=O)C4(C)c3nc(CC(C)(C)C(=O)O)co3)c3ccc(F)cc32)CC1 (racemic) [Example 137AB] : 98.4

Documented % Activation of CC(C)(Cc1csc([C@]2(C)C(=O)Nc3nc(-c4nn(CC5CCCCO5)c5ncccc45)nc(N)c32)n1)C(=O)O (single isomer, unassigned) [Example 123AB] : 95.8

Documented % Activation of CC1CCC(Cn2nc(-c3nc(N)c4c(n3)NC(=O)C4(C)c3nc(CC(C)(C)C(=O)O)co3)c3ccc(Cl)cc32)CC1 (single isomer, unassigned) [Example 132AB] : 109.2

Documented % Activation of CC(Cc1ccc(C2(C)C(=O)Nc3nc(-c4nn(CCC(F)(F)C(F)(F)F)c5cc(Cl)ccc45)nc(N)c32)cc1)C(=O)O (single isomer, unassigned) [Example 34AA] : 81

Documented % Activation of CC(C)(Cc1csc([C@]2(C)C(=O)Nc3nc(-c4nn(CC5CCCCO5)c5ccccc45)nc(N)c32)n1)C(=O)O (single isomer, unassigned) [Example 229AB] : 72.9

Documented % Activation of CC(C)(Cc1csc([C@]2(C)C(=O)Nc3nc(-c4nn(CC5CCCCO5)c5cc(F)ccc45)nc(N)c32)n1)C(=O)O (single isomer, unassigned) [Example 133AB] : 111.4

Documented % Activation of CC1CCC(Cn2nc(-c3nc(N)c4c(n3)NC(=O)[C@@]4(C)c3nc(CC(C)(C)C(=O)O)cs3)c3ccc(F)cc32)CC1 (single isomer, unassigned) [Example 136AB] : 71.4

* * *

# measured-on: sGC α1/β1 heterodimer (Homo sapiens (Human), UniProt Q02108+Q02153)
# protocol-description: Cell-based sGC functional assay (cyclic GMP assay for sGC activator: CASA assay)
# condition-set: CHO-K1, activity expressed as percentage of compound A (standard); CHO-K1/sGC cells; read-out: % Activation
Recorded Emax for the following compounds
Form entry: value (%) — number only.

Recorded Emax, per entry:
compound="CC1(c2cccc(CCC(=O)O)c2)C(=O)Nc2nc(-c3nn(Cc4ccccc4F)c4cc(Cl)ccc34)nc(N)c21 (stereo not drawn) [Example 48A]" measurement_units=% value_reported=102
compound="CC1(c2ccc(-c3nn[nH]n3)cc2)C(=O)Nc2nc(-c3nn(Cc4ccccc4F)c4cc(F)ccc34)nc(N)c21 (stereo not drawn) [Example 250B]" measurement_units=% value_reported=102

Tested on sGC α1/β1 heterodimer (Homo sapiens (Human), UniProt Q02108+Q02153), the item CC(C)(Cc1csc([C@]2(C)C(=O)Nc3nc(-c4nn(Cc5ccc(F)cc5)c5cc(Cl)ccc45)nc(N)c32)n1)C(=O)O [Example 174A] showed Emax equal to 121
